- assayRemarks: Dynamic vapor sorption (DVS) with XRPD of the post-DVS sample
- Assay type: physicochemical
- setupConditions: sorption 5-95% RH
For each record, write down the corresponding DVS sorption weight gain, 5-95% RH.

# count of solved cases: 3
compound | DVS sorption weight gain, 5-95% RH
COc1cc(CCN)c(OC)cc1Br.O=C(O)CC(O)(CC(=O)O)C(=O)O [Citrate (Form 2), 2C-B Citrate] | 5-95% RH: 0.5% gain
COc1cc(CCN)c(OC)cc1Br.O=C(O)c1cc(O)ccc1O [Gentisate, 2C-B gentisate] | 5-95% RH: 0.2% gain
COc1cc(CCN)c(OC)cc1Br.O=S(=O)(O)c1ccccc1 [Besylate (Form 1), 2C-B besylate] | 5-95% RH: 0.7% gain

Pending compound:
Query string: Fill in: DVS sorption weight gain, 5-95% RH of COc1cc(CCN)c(OC)cc1Br.O=C(O)C(O)C(O)C(=O)O [Tartrate (Form 1)] is ___
Result string: 5-95% RH: 0.1% gain
